target: Beta-lactamase (Escherichia coli K-12); test: Apparent inhibition constant against Escherichia coli AmpC beta-lactamase
Sequence (P00811 whole entry): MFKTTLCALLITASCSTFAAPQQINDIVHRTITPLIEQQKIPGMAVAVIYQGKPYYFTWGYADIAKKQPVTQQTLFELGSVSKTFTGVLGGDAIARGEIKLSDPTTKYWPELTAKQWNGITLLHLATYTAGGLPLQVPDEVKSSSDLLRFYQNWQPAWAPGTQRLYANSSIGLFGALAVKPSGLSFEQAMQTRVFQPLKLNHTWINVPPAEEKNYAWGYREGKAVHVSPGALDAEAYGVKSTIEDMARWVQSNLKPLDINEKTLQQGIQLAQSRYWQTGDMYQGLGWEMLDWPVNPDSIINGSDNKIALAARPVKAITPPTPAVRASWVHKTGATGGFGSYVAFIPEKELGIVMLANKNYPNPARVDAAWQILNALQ
Labelling: Ki reported below 2000 nM becomes yes; at or above becomes no.

These solved cases illustrate the format of a correct answer.
| Smiles code | Class name |
| --- | --- |
| Nc1cc(B(O)O)ccc1/N=N/c1cccc(B(O)O)c1 | no |
| O=S(=O)(O)c1cc(/N=N/c2cccc(B(O)O)c2)c(O)c2ccccc12 | no |
| OB(O)c1cccc(/N=N/c2ccc(O)c3ccccc23)c1 | yes |
| OB(O)c1cccc(/N=N/c2cc(Cl)c(O)c(Cl)c2)c1 | no |
| OB(O)c1cccc(/N=N/c2ccc(/N=N/c3c(O)ccc4ccccc34)cc2O)c1 | yes |
| OB(O)c1cccc(/N=N/c2ccc(O)cc2)c1 | yes |
| OB(O)c1cccc(/N=N/c2c(O)cc(O)c3ccccc23)c1 | yes |
| OB(O)c1cccc(/N=N/c2ccccc2O)c1 | no |
| Cc1noc(C)c1/N=N/c1cccc(B(O)O)c1 | yes |
| OB(O)c1cccc(/N=N/c2ccc(/N=N/c3c(O)cc(O)c4ccccc34)cc2O)c1 | yes |

QUERY: Please state whether Ki is below 2000 nM for "OB(O)c1cccc(/N=N/c2c(O)ccc3ccccc23)c1"
RESULT: yes

QUERY: Please state whether Ki is below 2000 nM for "OB(O)c1cc(/N=N/c2ccc(Br)cc2)ccc1O"
RESULT: no

QUERY: Please state whether Ki is below 2000 nM for "O=[N+]([O-])c1cccc(/N=N/c2cccc(B(O)O)c2)c1O"
RESULT: yes
